Source of measurements: paper PMC3004914

- studySystem: rNav1.2 sodium channels (HEK-293 cells) (Rattus norvegicus, UniProt P04775)
- Sequence (P04775 whole entry): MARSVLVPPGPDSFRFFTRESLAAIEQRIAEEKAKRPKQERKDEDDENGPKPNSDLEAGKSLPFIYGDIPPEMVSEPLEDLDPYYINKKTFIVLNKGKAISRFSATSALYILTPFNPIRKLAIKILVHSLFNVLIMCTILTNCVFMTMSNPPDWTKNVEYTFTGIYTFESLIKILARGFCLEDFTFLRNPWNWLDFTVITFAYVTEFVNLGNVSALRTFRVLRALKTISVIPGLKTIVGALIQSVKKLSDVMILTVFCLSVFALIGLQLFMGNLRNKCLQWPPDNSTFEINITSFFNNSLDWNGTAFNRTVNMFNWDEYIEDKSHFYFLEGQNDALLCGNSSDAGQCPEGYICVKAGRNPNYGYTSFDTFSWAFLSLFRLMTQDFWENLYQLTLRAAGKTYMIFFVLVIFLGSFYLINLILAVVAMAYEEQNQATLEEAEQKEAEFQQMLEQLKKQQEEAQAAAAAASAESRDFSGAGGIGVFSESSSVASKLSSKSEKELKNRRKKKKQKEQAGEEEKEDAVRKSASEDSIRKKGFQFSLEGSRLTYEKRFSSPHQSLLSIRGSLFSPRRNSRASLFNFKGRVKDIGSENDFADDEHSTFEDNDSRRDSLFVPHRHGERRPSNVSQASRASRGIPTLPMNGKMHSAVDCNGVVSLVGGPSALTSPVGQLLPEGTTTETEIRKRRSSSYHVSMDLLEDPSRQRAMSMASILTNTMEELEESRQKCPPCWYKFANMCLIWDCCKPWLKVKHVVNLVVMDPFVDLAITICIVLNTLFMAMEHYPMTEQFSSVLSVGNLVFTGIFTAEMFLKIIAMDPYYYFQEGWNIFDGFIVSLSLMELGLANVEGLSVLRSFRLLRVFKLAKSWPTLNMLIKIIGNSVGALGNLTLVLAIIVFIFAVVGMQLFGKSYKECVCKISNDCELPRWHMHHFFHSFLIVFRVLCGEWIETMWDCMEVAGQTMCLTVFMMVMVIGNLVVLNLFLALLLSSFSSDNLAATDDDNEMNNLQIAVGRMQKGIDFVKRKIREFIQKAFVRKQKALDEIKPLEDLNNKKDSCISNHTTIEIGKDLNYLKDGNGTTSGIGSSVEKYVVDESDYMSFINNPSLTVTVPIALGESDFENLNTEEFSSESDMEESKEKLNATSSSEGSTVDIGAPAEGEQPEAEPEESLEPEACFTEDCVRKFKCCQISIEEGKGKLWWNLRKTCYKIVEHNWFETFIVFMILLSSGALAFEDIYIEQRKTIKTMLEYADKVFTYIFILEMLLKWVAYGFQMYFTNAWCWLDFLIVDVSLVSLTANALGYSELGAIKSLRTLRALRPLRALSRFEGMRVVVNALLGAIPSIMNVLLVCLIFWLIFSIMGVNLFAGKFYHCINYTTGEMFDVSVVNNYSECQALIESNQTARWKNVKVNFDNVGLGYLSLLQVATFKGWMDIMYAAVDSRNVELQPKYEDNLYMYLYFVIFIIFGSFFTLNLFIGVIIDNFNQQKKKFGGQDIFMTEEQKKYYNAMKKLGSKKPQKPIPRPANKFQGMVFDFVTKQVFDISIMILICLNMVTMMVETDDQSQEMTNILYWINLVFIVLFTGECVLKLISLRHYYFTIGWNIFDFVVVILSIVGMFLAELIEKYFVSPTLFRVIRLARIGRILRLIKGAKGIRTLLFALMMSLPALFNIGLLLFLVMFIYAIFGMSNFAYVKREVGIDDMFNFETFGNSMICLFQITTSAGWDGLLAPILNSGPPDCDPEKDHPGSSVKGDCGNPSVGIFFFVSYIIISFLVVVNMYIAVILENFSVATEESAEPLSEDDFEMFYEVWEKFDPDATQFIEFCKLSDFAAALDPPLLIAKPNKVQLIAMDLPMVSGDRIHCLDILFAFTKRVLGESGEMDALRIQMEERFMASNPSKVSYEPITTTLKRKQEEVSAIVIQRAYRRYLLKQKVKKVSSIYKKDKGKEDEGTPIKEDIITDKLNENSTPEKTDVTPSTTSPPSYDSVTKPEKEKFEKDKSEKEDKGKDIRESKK
- assayNotes: 5 Hz train protocol, QPatch automated patch-clamp
- Type: cell-based
- recordedConditions: 100 μM; 500 s assigned where irreversible
# note: exactly 9 s is not below, so it is No; use Yes for τoff strictly under it

Task: Say whether its τoff is strictly beneath 9 s. Entry: CN1CCN2c3ncccc3Cc3ccccc3C2C1 (centres unmarked)
Result: Yes

Task: Is τoff strictly under 9 s for the entry C[Si](C)(Cc1ccc(F)cc1)CN1CCCCC1 ?
Result: No

Task: I'd appreciate it if you could check whether COc1ccc(C(CN(C)C)C2(O)CCCCC2)cc1 (centres unmarked) has τoff smaller than 9 s.
Result: Yes

----------
- studySystem: rNav1.2 sodium channels (HEK-293 cells) (Rattus norvegicus, UniProt P04775)
- assayNotes: steady-state inactivation protocol (availability curves), QPatch automated patch-clamp
- Assay type: cell-based
- recordedConditions: 30 μM
Measured ΔV1/2 (shift of availability curve), listed per entry.

Below, each entry is followed by its recorded ΔV1/2 (shift of availability curve) result.
Looking up CN(C)CCCN1c2ccccc2Sc2ccc(Cl)cc21 , I see its ΔV1/2 (shift of availability curve) listed as −18.4 mV

According to the records, this compound CCc1nn(CCCN2CCN(c3cccc(Cl)c3)CC2)c(=O)n1CCOc1ccccc1 displays ΔV1/2 (shift of availability curve) of −17.4 mV

Given item Cc1nc2sccn2c(=O)c1CCN1CCC(=C(c2ccc(F)cc2)c2ccc(F)cc2)CC1 , the value recorded as its ΔV1/2 (shift of availability curve) is −7.28 mV

Query CN(C)CCC=C1c2ccccc2CCc2ccccc21 yields ΔV1/2 (shift of availability curve) of −11.2 mV

Lab note: Fc1ccc([C@@H]2CCNC[C@H]2COc2ccc3c(c2)OCO3)cc1 gave ΔV1/2 (shift of availability curve) of −11.4 mV

Kindly consider the entry below.
Recorded result, CN(C)CC/C=C1/c2ccccc2Sc2ccc(Cl)cc21 , ΔV1/2 (shift of availability curve): −15.8 mV

----------
# Ki per entry
- studySystem: rNav1.2 sodium channels (HEK-293 cells) (Rattus norvegicus)
- assayNotes: steady-state inactivation protocol (availability curves), QPatch automated patch-clamp
- Type: cell-based
- recordedConditions: arithmetic mean; 30 µM; read-out: Ki-ΔV1/2 arith
Dear colleague, please return just the value in nM, with no unit written.

Per the records, this compound ( Cc1nc2sccn2c(=O)c1CCN1CCC(=C(c2ccc(F)cc2)c2ccc(F)cc2)CC1 ) has Ki equal to 7690

***
For reference, reported Ki for CN(C)CC/C=C1/c2ccccc2Sc2ccc(Cl)cc21 stands at 1140

The compound Fc1ccc([C@@H]2CCNC[C@H]2COc2ccc3c(c2)OCO3)cc1 showed Ki equal to 8990

# Ki (compound: CN(C)CCC=C1c2ccccc2CCc2ccccc21 ) is 3780

Ki in this record for CN(C)CCCN1c2ccccc2Sc2ccc(Cl)cc21 : 330

// Ki lookup, compound = CCc1nn(CCCN2CCN(c3cccc(Cl)c3)CC2)c(=O)n1CCOc1ccccc1 , result: 1050

----------
- studySystem: rNav1.2 sodium channels (HEK-293 cells) (Rattus norvegicus, UniProt P04775)
- assayNotes: 5 Hz train protocol, QPatch automated patch-clamp
- Format: cell-based
- recordedConditions: 300 μM
The entries below are paired with their reported τoff.
Reply numerically in s, unit not repeated.

Guide cases for τoff, answers given:
According to the records, this molecule O=C1NC(=O)C(c2ccccc2)(c2ccccc2)N1 displays τoff of 15.96

Entry NC(=O)N1c2ccccc2C=Cc2ccccc21 [CBZ, Carbamazepine] ; τoff = 10.01

Reported τoff ( Cc1cccc(C)c1OCC(C)N (stereo not drawn) ) = 12.93

The measured τoff associated with CCN(CC)CC(=O)Nc1c(C)cccc1C reads 6

Field τoff (entry Nc1nnc(-c2cccc(Cl)c2Cl)c(N)n1 ) reads 18.1

Field: next molecule
Lab book: τoff of O=C(NCC1CCCCN1)c1cc(OCC(F)(F)F)ccc1OCC(F)(F)F (stereo not drawn) [FLC, Flecainide] noted as 64.97

----------
- studySystem: rNav1.2 sodium channels (HEK-293 cells) (Rattus norvegicus)
- assayNotes: steady-state inactivation protocol (availability curves), QPatch automated patch-clamp
- Type: cell-based
- recordedConditions: arithmetic mean; 30 µM; read-out: Ki-Kapp arith
recordedMetric: pKi
Entry type: numeric. Quantity: pKi, the -log10 of concentration in molar units.

pKi in this record for CN(C)CCCN1c2ccccc2Sc2ccc(Cl)cc21 : 5.99

Please fill in: pKi reported for CN(C)CCC=C1c2ccccc2CCc2ccccc21 = 5.29

Summary for this compound, Cc1nc2sccn2c(=O)c1CCN1CCC(=C(c2ccc(F)cc2)c2ccc(F)cc2)CC1 : pKi is 5.19

Further cases:
For Fc1ccc([C@@H]2CCNC[C@H]2COc2ccc3c(c2)OCO3)cc1 the compound record lists pKi as 5.79

pKi reported for this compound CN(C)CC/C=C1/c2ccccc2Sc2ccc(Cl)cc21 : 5.66

Per the records, this compound ( CCc1nn(CCCN2CCN(c3cccc(Cl)c3)CC2)c(=O)n1CCOc1ccccc1 ) has pKi equal to 5.96

----------
- studySystem: rNav1.2 sodium channels (HEK-293 cells) (Rattus norvegicus, UniProt P04775)
- assayNotes: steady-state inactivation protocol (availability curves), QPatch automated patch-clamp
- Format: cell-based
- recordedConditions: arithmetic mean; 300 µM; read-out: Kr arith
recordedMetric: pKd
The quantity pKd is defined as the negative base-10 logarithm of the molar concentration.

Previously resolved entries follow.
NC(=O)N1c2ccccc2C=Cc2ccccc21 [CBZ, Carbamazepine] tested on rNav1.2 sodium channels (HEK-293 cells) (Rattus norvegicus, UniProt P04775) gave pKd: 2.93

So the reported pKd for Nc1nnc(-c2cccc(Cl)c2Cl)c(N)n1 , on rNav1.2 sodium channels (HEK-293 cells) (Rattus norvegicus, UniProt P04775), turned out to be 2.63

Test item Cc1cccc(C)c1OCC(C)N (stereo not shown) ; rNav1.2 sodium channels (HEK-293 cells) (Rattus norvegicus, UniProt P04775); reported pKd was 3.18

Tested on rNav1.2 sodium channels (HEK-293 cells) (Rattus norvegicus, UniProt P04775): CCN(CC)CC(=O)Nc1c(C)cccc1C . Observed pKd: 2.48

Sample O=C1NC(=O)C(c2ccccc2)(c2ccccc2)N1 , system: rNav1.2 sodium channels (HEK-293 cells) (Rattus norvegicus, UniProt P04775). Its pKd is 2.53

Further cases:
The measured pKd that O=C(NCC1CCCCN1)c1cc(OCC(F)(F)F)ccc1OCC(F)(F)F (stereo not shown) [FLC, Flecainide] showed for rNav1.2 sodium channels (HEK-293 cells) (Rattus norvegicus, UniProt P04775) is 4.19

// returns pKd for COc1ccccc1OCC(O)CN1CCN(CC(=O)Nc2c(C)cccc2C)CC1 (stereo not shown) with rNav1.2 sodium channels (HEK-293 cells) (Rattus norvegicus, UniProt P04775); value = 3.23

----------
Reported pKd values are given for each entry in this list.
- studySystem: rNav1.2 sodium channels (HEK-293 cells) (Rattus norvegicus, UniProt P04775)
- assayNotes: steady-state inactivation protocol (availability curves), QPatch automated patch-clamp
- Type: cell-based
- recordedConditions: arithmetic mean; 100 µM; read-out: Kr arith
Remember, pKd is on a log scale: it is -log10 of the molar concentration.

Worked set:
The compound identified as CN(C)CCC=C1c2ccccc2CCc2ccccc21 [AMI, Amitriptyline] registered its pKd at 4.14

Reported pKd ( CC12CC3CC(C)(C1)CC(N)(C3)C2 [MEM, Memantine] ) = 3.61

More entries:
The reported value for Nc1c(Br)cc(Br)cc1CN[C@H]1CC[C@H](O)CC1 [AMB, Ambroxol] in terms of pKd is 3.70

Memo: C[Si](C)(Cc1ccc(F)cc1)CN1CCCCC1 [SIL, Silperisone] , reported pKd: 3.87

Summary for this compound, CCCCN1CCCCC1C(=O)Nc1c(C)cccc1C (stereo not drawn) [BPV, Bupivacaine] : pKd is 3.20

----------
- studySystem: rNav1.2 sodium channels (HEK-293 cells) (Rattus norvegicus)
- assayNotes: steady-state inactivation protocol (availability curves), QPatch automated patch-clamp
- Format: cell-based
- recordedConditions: geometric mean; from Inh at −150 mV, 1 µM; read-out: Kr (resting state affinity)
recordedMetric: Kd (µM)
Form entry: value (µM) — number only.

Kd reading for Cc1ccc(-c2nc(C)c(CN3CCN(C(c4ccccc4)c4ccccc4)CC3)[nH]2)cc1 : 55.8

----------
- studySystem: rNav1.2 sodium channels (HEK-293 cells) (Rattus norvegicus)
- assayNotes: steady-state inactivation protocol (availability curves), QPatch automated patch-clamp
- Format: cell-based
- recordedConditions: Ki−ΔV1/2 (inactivated state affinity), geometric mean; from shift of availability curve, 100 µM
recordedMetric: Ki (µM)
Respond numerically; units are µM and should not be typed.

The measured Ki that COc1ccc(C(CN(C)C)C2(O)CCCCC2)cc1 (centres unmarked) [VFX, Venlafaxine] showed for rNav1.2 sodium channels (HEK-293 cells) (Rattus norvegicus) is 59.5

// moving on: another record for Ki
Form: item CNCCC(Oc1ccccc1OC)c1ccccc1 (centres unmarked) [NIS, Nisoxetine] ; test system rNav1.2 sodium channels (HEK-293 cells) (Rattus norvegicus); Ki: 19.1
